Study system: T1, exon 6 peptide (ASSLRNDSSSSNRKAKNPPGDS), coated on ELISA plate (not fully specified)
T1 construct: No biotin is mentioned for the ELISA coat; also called a peptide of SCF248
T1 peptide: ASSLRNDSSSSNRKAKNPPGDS
Test protocol: direct ELISA on coated peptide, IgG4, read at 450 nm
Some binders, each annotated with its measured absorbance at 0.5 ng/mL antibody.
# output: bare number, implied unit absorbance

B114P mutant expressed as full length IgG4 antibody (antibody, V domains shown, Full length IgG4) VH: QVQLVQSGAELKKPGSSVKISCKSSGYAFSSQWMNWVKQRPGQGLEWIGQIYPEDGDTHMNGKFKGKATLTADKSTSTAYMELSSLTSEDSAVYFCSSSNWDGSYWGQGTLVTVSS VL: DVVMTQSPLSLPVTLGQPASISCKSSQSLLEEDGNTYLNWLQQRPGQSPRRLIYLVDRLDSGVPDRFSGSGSGTDFTLKISRVEAEDVGVYYCWQGTDLPQTFGGGTKVEIK ... 0.127

Requested field: absorbance at 0.5 ng/mL antibody. Item: H74P mutant expressed as full length IgG4 antibody (antibody, V domains shown, Full length IgG4) VH: QVQLVQSGAELKKPGSSVKISCKSSGYAFSSQWMNWVKQRPGQGLEWIGQIYPEDGDTHYNGKFKGKATLTADKSTSTAYMELSSLTSEDSAVYFCSSSNWVGSYWGQGTLVTVSS VL: DVVMTQSPLSLPVTLGQPASISCKSSQSLLEEDGNTYLNWLQQRPGQSPRRLIYLVDRLDLGVPDRFSGSGSGTDFTLKISRVEAEDVGVYYCWQGSHLPQTFGGGTKVEIK
0.249

These data points were gathered from patent US20240182556A1.
